From: the supplement of paper PMC10307832

Tested on: NCI-H2405
test.protocol: relative viability (nuclei count vs DMSO), 5 days (fraction); higher = more cells survive
condition.details: first compound 0.2 µM
readout.kind: relative viability

COCC1(CO)C(=O)C2CCN1CC2 (stereo unspecified) [PRIMA-1MET] + C[C@@H](Oc1cc(-c2cnn(C3CCNCC3)c2)cnc1N)c1c(Cl)ccc(F)c1Cl [Crizotinib] (partner 1 µM) : 0.679
COCC1(CO)C(=O)C2CCN1CC2 (stereo unspecified) [PRIMA-1MET] + COc1cc2c(Oc3ccc(NC(=O)C4(C(=O)Nc5ccc(F)cc5)CC4)cc3F)ccnc2cc1OCCCN1CCOCC1 [Foretinib] (partner 0.25 µM) : 1.03
COCC1(CO)C(=O)C2CCN1CC2 (stereo unspecified) [PRIMA-1MET] + CC(=O)Nc1cccc(-n2c(=O)n(C3CC3)c(=O)c3c(Nc4ccc(I)cc4F)n(C)c(=O)c(C)c32)c1 [Trametinib] (partner 0.02 µM) : 0.399
COCC1(CO)C(=O)C2CCN1CC2 (stereo unspecified) [PRIMA-1MET] + Cc1nc(Nc2ncc(C(=O)Nc3c(C)cccc3Cl)s2)cc(N2CCN(CCO)CC2)n1 [Dasatinib] (partner 0.075 µM) : 0.197
COCC1(CO)C(=O)C2CCN1CC2 (stereo unspecified) [PRIMA-1MET] + CC1(C)CCC(c2ccc(Cl)cc2)=C(CN2CCN(c3ccc(C(=O)NS(=O)(=O)c4ccc(N[C@H](CCN5CCOCC5)CSc5ccccc5)c(S(=O)(=O)C(F)(F)F)c4)cc3)CC2)C1 [Navitoclax] (partner 0.5 µM) : 0.676
COCC1(CO)C(=O)C2CCN1CC2 (stereo unspecified) [PRIMA-1MET] + CCNC(=O)c1noc(-c2cc(C(C)C)c(O)cc2O)c1-c1ccc(CN2CCOCC2)cc1 [Luminespib] (partner 0.01 µM) : 0.65

* * *

// values below are reported relative viability
System: NCI-H2126
test.protocol: relative viability (nuclei count vs DMSO), 5 days (fraction); higher = more cells survive
condition.details: first compound 0.3162 µM
readout.kind: relative viability

O=c1cc(N2CCOCC2)oc2c(-c3cccc4c3sc3ccccc34)cccc12 + O=C(c1cc(Cc2n[nH]c(=O)c3ccccc23)ccc1F)N1CCN(C(=O)C2CC2)CC1 [Olaparib] (partner 8 µM) : 0.899
O=c1cc(N2CCOCC2)oc2c(-c3cccc4c3sc3ccccc34)cccc12 + C[C@@H](Oc1cc(-c2cnn(C3CCNCC3)c2)cnc1N)c1c(Cl)ccc(F)c1Cl [Crizotinib] (partner 1 µM) : 0.944
O=c1cc(N2CCOCC2)oc2c(-c3cccc4c3sc3ccccc34)cccc12 + Cc1cc(Nc2cc(N3CCN(C)CC3)nc(Sc3ccc(NC(=O)C4CC4)cc3)n2)n[nH]1 [Tozasertib] (partner 0.1 µM) : 0.794
CCN(CC)CCCCNc1ncc2cc(-c3cc(OC)cc(OC)c3)c(NC(=O)NC(C)(C)C)nc2n1 + CC(=O)c1c(C)c2cnc(Nc3ccc(N4CCNCC4)cn3)nc2n(C2CCCC2)c1=O [Palbociclib] (partner 0.5 µM) : 0.345
CCN(CC)CCCCNc1ncc2cc(-c3cc(OC)cc(OC)c3)c(NC(=O)NC(C)(C)C)nc2n1 + Nc1ncn([C@H]2C[C@H](O)[C@@H](CO)O2)c(=O)n1 [Decitabine] (partner 2 µM) : 0.603
O=c1cc(N2CCOCC2)oc2c(-c3cccc4c3sc3ccccc34)cccc12 + NC(=O)Nc1cc(-c2cccc(F)c2)sc1C(=O)N[C@H]1CCCNC1 [AZD7762] (partner 0.2 µM) : 0.981
CCN(CC)CCCCNc1ncc2cc(-c3cc(OC)cc(OC)c3)c(NC(=O)NC(C)(C)C)nc2n1 + Cc1nc(NC(=O)N2CCC[C@H]2C(N)=O)sc1-c1ccnc(C(C)(C)C(F)(F)F)c1 [Alpelisib] (partner 2 µM) : 0.815
CCN(CC)CCCCNc1ncc2cc(-c3cc(OC)cc(OC)c3)c(NC(=O)NC(C)(C)C)nc2n1 + CC1(C)CCC(c2ccc(Cl)cc2)=C(CN2CCN(c3ccc(C(=O)NS(=O)(=O)c4ccc(N[C@H](CCN5CCOCC5)CSc5ccccc5)c(S(=O)(=O)C(F)(F)F)c4)cc3)CC2)C1 [Navitoclax] (partner 0.5 µM) : 0.927
CCN(CC)CCCCNc1ncc2cc(-c3cc(OC)cc(OC)c3)c(NC(=O)NC(C)(C)C)nc2n1 + C[C@@H](Oc1cc(-c2cnn(C3CCNCC3)c2)cnc1N)c1c(Cl)ccc(F)c1Cl [Crizotinib] (partner 1 µM) : 1.08
CCN(CC)CCCCNc1ncc2cc(-c3cc(OC)cc(OC)c3)c(NC(=O)NC(C)(C)C)nc2n1 + COc1cc2c(Oc3ccc(NC(=O)C4(C(=O)Nc5ccc(F)cc5)CC4)cc3F)ccnc2cc1OCCCN1CCOCC1 [Foretinib] (partner 0.25 µM) : 1.22
